- System: S. aureus ATCC 29213
- PROCEDURE SUMMARY: Microbroth dilution MIC (CLSI)
- Format: cell-based
- TEST SETTINGS: Staphylococcus aureus, ATCC29213; S. aureus ATCC 29213; read-out: MIC
Attribute: MIC

- MOLECULE: "Cc1[nH]c(C(=O)Nc2ccc(-n3nn[nH]c3=O)cc2N2CCC(N)CC2)c(Cl)c1Cl.Cl [Example 23]"
  MIC: "≥ 32 µg/mL"
- MOLECULE: "Cc1[nH]c(C(=O)Nc2ccc(-c3noc(=O)[nH]3)cc2N2CCNCC2)c(Cl)c1Cl [Example 5]"
  MIC: "> 64 µg/mL"
- MOLECULE: "Cc1[nH]c(C(=O)Nc2ccc(-c3nnn[nH]3)cc2N2CCOCC2)c(Cl)c1Cl [Example 10]"
  MIC: "≥ 64 µg/mL"
- MOLECULE: "Cc1[nH]c(C(=O)Nc2ccc(C(=O)NCC(=O)O)cc2N2CCNCC2)c(Cl)c1Cl.Cl [Example 36]"
  MIC: "≥ 64 µg/mL"

====

# MIC values compiled below
- Tested on: S. aureus ATCC 29213
- PROCEDURE SUMMARY: Microbroth dilution MIC (CLSI)
- Format: cell-based
- TEST SETTINGS: Staphylococcus aureus, ATCC29213; S. aureus ATCC 29213; read-out: MIC

- COMPOUND: "Cl.N[C@H]1CCN(c2cc(C(=O)NCC(=O)O)ccc2NC(=O)c2cc(Br)c(Br)[nH]2)C1 [Example 38]"
  TARGET ENTITY: "S. aureus ATCC 29213"
  MIC: "≥ 64 µg/mL"
- COMPOUND: "Cl.N[C@@H]1CCN(c2cc(C(=O)NCC(=O)O)ccc2NC(=O)c2cc(Br)c(Br)[nH]2)C1 [Example 37]"
  TARGET ENTITY: "S. aureus ATCC 29213"
  MIC: "≥ 64 µg/mL"
- COMPOUND: "Cc1[nH]c(C(=O)Nc2ccc(-n3nn[nH]c3=O)cc2N2CC[C@H](N)C2)c(Cl)c1Cl.Cl [Example 22]"
  TARGET ENTITY: "S. aureus ATCC 29213"
  MIC: "≥ 32 µg/mL"
- COMPOUND: "Cc1[nH]c(C(=O)Nc2ccc(C(=O)O)cc2N2CCNCC2)c(Cl)c1Cl [Example 12]"
  TARGET ENTITY: "S. aureus ATCC 29213"
  MIC: "≥ 64 µg/mL"
- COMPOUND: "Cc1[nH]c(C(=O)Nc2ccc(-c3n[nH]c(=O)o3)cc2OCC2CCCNC2)c(Cl)c1Cl.Cl (centres unmarked) [Example 28]"
  TARGET ENTITY: "S. aureus ATCC 29213"
  MIC: "> 64 µg/mL"

====

- TARGET ENTITY: E. coli topoisomerase IV (Escherichia coli)
- Construct: purchased Inspiralis
- Sequence (P0AFI2 whole entry): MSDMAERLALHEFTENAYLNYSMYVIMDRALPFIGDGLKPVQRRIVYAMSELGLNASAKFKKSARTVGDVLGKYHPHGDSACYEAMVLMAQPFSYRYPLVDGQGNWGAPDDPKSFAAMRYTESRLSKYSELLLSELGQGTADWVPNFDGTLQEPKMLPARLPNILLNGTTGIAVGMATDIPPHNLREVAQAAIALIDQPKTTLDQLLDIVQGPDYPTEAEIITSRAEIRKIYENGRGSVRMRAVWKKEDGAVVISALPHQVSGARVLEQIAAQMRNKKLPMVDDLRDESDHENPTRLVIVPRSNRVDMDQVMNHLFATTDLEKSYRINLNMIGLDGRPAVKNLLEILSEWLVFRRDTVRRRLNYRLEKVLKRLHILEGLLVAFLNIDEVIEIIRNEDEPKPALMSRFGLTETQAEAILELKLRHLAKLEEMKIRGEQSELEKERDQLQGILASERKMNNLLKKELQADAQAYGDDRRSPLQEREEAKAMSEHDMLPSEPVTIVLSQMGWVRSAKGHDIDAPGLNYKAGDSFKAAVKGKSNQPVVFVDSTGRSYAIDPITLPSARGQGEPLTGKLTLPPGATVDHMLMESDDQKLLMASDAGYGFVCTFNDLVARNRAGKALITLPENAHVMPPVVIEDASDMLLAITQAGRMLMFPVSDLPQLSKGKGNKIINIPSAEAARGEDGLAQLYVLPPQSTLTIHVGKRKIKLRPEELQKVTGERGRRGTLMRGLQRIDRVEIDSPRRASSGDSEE
- Sequence (P20083 whole entry): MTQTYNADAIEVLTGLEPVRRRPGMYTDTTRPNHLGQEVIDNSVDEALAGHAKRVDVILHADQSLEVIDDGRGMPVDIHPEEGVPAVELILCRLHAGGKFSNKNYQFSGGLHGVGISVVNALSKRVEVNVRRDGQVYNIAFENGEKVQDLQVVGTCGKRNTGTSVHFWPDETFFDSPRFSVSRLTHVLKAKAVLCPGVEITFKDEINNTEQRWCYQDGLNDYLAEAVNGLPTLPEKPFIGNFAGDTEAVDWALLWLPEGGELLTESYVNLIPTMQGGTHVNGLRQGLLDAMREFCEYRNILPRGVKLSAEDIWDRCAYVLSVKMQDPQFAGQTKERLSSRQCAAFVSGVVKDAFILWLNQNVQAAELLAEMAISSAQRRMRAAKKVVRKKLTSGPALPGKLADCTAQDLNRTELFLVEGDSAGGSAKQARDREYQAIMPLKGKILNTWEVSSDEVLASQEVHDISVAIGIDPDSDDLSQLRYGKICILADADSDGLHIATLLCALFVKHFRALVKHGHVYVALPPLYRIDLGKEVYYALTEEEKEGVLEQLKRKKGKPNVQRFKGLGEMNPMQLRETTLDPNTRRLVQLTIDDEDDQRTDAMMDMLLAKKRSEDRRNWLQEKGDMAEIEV
- PROCEDURE SUMMARY: biochemical
- TEST SETTINGS: E. coli topo IV; 10 μM compound; read-out: RA (residual activity of the enzyme)

- MOLECULE: "Cc1[nH]c(C(=O)Nc2ccc(-n3nn[nH]c3=O)cc2N2CC[C@H](N)C2)c(Cl)c1Cl.Cl [Example 22]"
  MEASURE UNIT: "%"
  remaining activity at 10 µM: 26
- MOLECULE: "Cc1[nH]c(C(=O)Nc2ccc(C(=O)O)cc2N2CCNCC2)c(Cl)c1Cl [Example 12]"
  MEASURE UNIT: "%"
  remaining activity at 10 µM: -18
- MOLECULE: "Cl.N[C@H]1CCN(c2cc(C(=O)NCC(=O)O)ccc2NC(=O)c2cc(Br)c(Br)[nH]2)C1 [Example 38]"
  MEASURE UNIT: "%"
  remaining activity at 10 µM: 84
- MOLECULE: "Cc1[nH]c(C(=O)Nc2ccc(-c3n[nH]c(=O)o3)cc2N2CCNCC2)c(Cl)c1Cl.Cl [Example 41]"
  MEASURE UNIT: "%"
  remaining activity at 10 µM: 48
- MOLECULE: "Cc1[nH]c(C(=O)Nc2ccc(-n3nn[nH]c3=O)cc2N2Cc3ccccc3C2)c(Cl)c1Cl [Example 25]"
  MEASURE UNIT: "%"
  remaining activity at 10 µM: 105
- MOLECULE: "Cc1[nH]c(C(=O)Nc2ccc(C(=O)NCC(=O)O)cc2N2CCNCC2)c(Cl)c1Cl.Cl [Example 36]"
  MEASURE UNIT: "%"
  remaining activity at 10 µM: -43
- MOLECULE: "Cc1[nH]c(C(=O)Nc2ccc(-c3n[nH]c(=O)o3)cc2OCc2ccccc2)c(Cl)c1Cl [Example 11]"
  MEASURE UNIT: "%"
  remaining activity at 10 µM: 106
